- study.target: Protein deacetylase HDAC6 (Homo sapiens)
- settings: at 10 µM
Hit rate of the full screen: of about 5,600 compounds, about 150 (2.7%) showed an effect of 50% or more. The sample holds strong results, similar compounds and a random draw of the others, so the mix is not that of the screen.
value.type: inhibition (%)
Answer with a number only, understood to be in %.

Record request: inhibition value, item N#Cc1c[nH]c2c(C(=O)N3CCN(CCc4ccc(F)cc4)CC3)cccc12
4.22

Record request: inhibition value, item CC(C)n1nccc1-c1ncccc1COc1cccc(O)c1C=O
0.21

Record request: inhibition value, item N[C@H]1C[C@@H]1c1ccc(-c2cccc(O)c2)cc1
51.4

Record request: inhibition value, item CC/C(=C(\c1ccc(OCCN(C)C)cc1)c1cccc(O)c1)c1ccccc1
-4.47

Record request: inhibition value, item COc1cccc(/C=N/C=N/c2cccc(OC)c2)c1
89.1

Record request: inhibition value, item Oc1ccc(OCc2ccccc2)cc1
87

Record request: inhibition value, item O=C(/C=C/c1ccccc1)NCCO
44.6

Record request: inhibition value, item CC(C)(C)c1cc(C(=O)/C(C#N)=N/Nc2cccc(Cl)c2)no1
7.67

Record request: inhibition value, item C=Cc1c(C)c2cc3nc(c(CC(=O)O)c4[nH]c(cc5nc(cc1[nH]2)C(C)=C5CC)c(C)c4C(=O)O)C(CCC(=O)O)C3C (configuration not stated)
8.5

Record request: inhibition value, item Oc1cccc(O)c1
5.02

Record request: inhibition value, item O=C(O)/C=C\c1c[nH]cn1
-0.7

Record request: inhibition value, item COc1ccc(O)cc1
1.74

Source listed as ChEMBL document CHEMBL4808148.
